From: PubChem BioAssay (EPA / NIEHS)

assay: CCTE_Shafer_MEA_acute_spike_number: CCTE's Neural Acute Assay for Total Number of Spikes, Shafer Lab (AID 2284008)
Active and inactive are the calls of the source. The calls were made as follows: active = hit-call score of the fitted dose curve at least 0.9, where 1 is the maximum; inactive = score below 0.9.
Returns: one label drawn from active, inactive

Here are 5 molecules together with their reported answers.
| molecule | category label |
| --- | --- |
| CN(C)C(=N)N=C(N)N | inactive |
| CCCCCCCCC=O | inactive |
| CC(=O)[C@H]1CC[C@H]2[C@@H]3CC=C4C[C@@H](O)CC[C@]4(C)[C@H]3CC[C@]12C | active |
| CCC(=O)OCc1ccccc1 | inactive |
| C=CCOC(=O)CCC1CCCCC1 | inactive |

Name the outcome recorded for CC[Si](OC(C)=O)(OC(C)=O)OC(C)=O in the assay.
inactive

Per the records of this test, what outcome belongs to CC(C)(COC(=O)c1ccccc1)COC(=O)c1ccccc1 ?
inactive

# outcome recorded in this test, key = OC1OC[C@@H](O)[C@H](O)[C@H]1O (stereo partly specified)
inactive

Any idea what this test logged for C[C@H]1C[C@@H]2[C@H]([C@@H](O)C[C@@]3(C)[C@H]2CC[C@]3(O)C(=O)CO)[C@@]2(C)C=CC(=O)C=C12 ?
active

Could you check what this test reported for Cc1cc(C2(c3cc(C)c(O)cc3C)OS(=O)(=O)c3ccccc32)c(C)cc1O ?
inactive

Field: outcome | Entry: OC[C@H]1O[C@H](O[C@]2(CCl)O[C@H](CCl)[C@@H](O)[C@@H]2O)[C@H](O)[C@@H](O)[C@H]1Cl
inactive

* * *

biological target: X-box-binding protein 1 (Homo sapiens); assay: ATG_Xbp1_CIS: Attagene CIS-FACTORIAL HepG2 Assay for human X-box Binding Protein 1 (XBP1) (AID 2282972); settings: HepG2 XBP1 cis-element reporter, Attagene multiplex; actives raise or lower the signal
Active and inactive are the calls of the source. How the source made its calls: active means hit-call score of the fitted dose curve at least 0.9, where 1 is the maximum; inactive means score below 0.9.
Can you answer with just one of these options? 1 (active), 0 (inactive)

Per the records of this test, what outcome belongs to O=[N+]([O-])c1ccc(C=Cc2ccc([N+](=O)[O-])cc2S(=O)(=O)O)c(S(=O)(=O)O)c1 ?
0

// outcome(item) with item = O=C1O[C@@H]2[C@@H](O)[C@H](O)O[C@@H]2[C@H]1O
0

Hello, I am checking results. What call was entered for CC1(C)C(=O)N(Br)C(=O)N1Cl ?
0

Called result for Cc1ccc2sc3cccc(C)c3c2c1
0

How did this test come out for CC(C)C[C@H]1C(=O)N2CCC[C@H]2[C@]2(O)O[C@](NC(=O)[C@@H]3C=C4c5cccc6[nH]c(Br)c(c56)C[C@H]4N(C)C3)(C(C)C)C(=O)N12 ?
0

* * *

experiment: ATG_GLI_CIS: Attagene CIS-FACTORIAL HepG2 Assay for human Zinc Finger Protein GLI1 (AID 2282945); conditions: HepG2, Attagene cis-factorial reporter mRNA, GLI element; actives raise or lower the signal
The source made the active and inactive calls. Rule for the calls: active = hit-call score of the fitted dose curve at least 0.9, where 1 is the maximum; inactive = score below 0.9.
// one of 1 (active), 0 (inactive), no free text

// known answers, use as guide
| compound | category label |
| --- | --- |
| CCCCCCCCCCCCN(CCCCCCCCCCCC)CCCCCCCCCCCC | 0 |
| O=C1OC2(c3cc(Br)c(O)c(Br)c3Oc3c2cc(Br)c(O)c3Br)c2c(Cl)c(Cl)c(Cl)c(Cl)c21 | 0 |
| CCCCCCOC(=O)CCCCC | 0 |
| CNC[C@H](O)c1cccc(O)c1 | 0 |

Entry O=C(O)c1cccc([N+](=O)[O-])c1 : call = ?
0

Assay outcome for CC(CC(C)(C)C)CC(C)(C)CC(C)(C)C (centres undefined) : what was it?
0

Would you mind telling me which call this test gave CCCCN ?
0

I would be grateful if you could indicate the recorded call for CC(C)(COC(=O)c1ccccc1)COC(=O)c1ccccc1 .
0

Per the records of this test, what outcome belongs to CC(C)C(C)(C)C(C)(C)C(C)(C)S ?
0

Dear colleague, could you share the recorded outcome for CC(C)(C)NC(N)=O when you have a moment?
0

Answer briefly: the call reported for CCO[Si](CCCS)(OCC)OCC in this assay.
0

// return assay outcome for CC(=O)OCC=Cc1ccccc1
0

Lab log entry: CC(C)(C#N)c1cc(Cn2cncn2)cc(C(C)(C)C#N)c1 — outcome as called in the assay?
0

How did this test come out for C=C[Si](OCC)(OCC)OCC ?
0
